Origin of the recorded values: ChEMBL document CHEMBL1138564

# Tested on: Rhodococcus corynebacterioides
# Assay explanation: Antimicrobial activity against Corynebacterium rubrum NCIM 2252 after 24 hrs by serial dilution method
# Assay type: functional
# Conditions: Rhodococcoides corynebacterioides, NCIM 2252, 24 h
Experimental endpoint: MIC (µg/mL)

CC1(C)CC(=O)C2=C(C1)Nc1c(ccc3ccccc13)C2c1cccc(Cl)c1 (centres undefined)	125

[I] O=C1CCCC2=C1C(c1ccccc1Cl)c1ccc3ccccc3c1N2 (centres undefined)
[II] CC1(C)CC(=O)C2=C(C1)Nc1c(ccc3ccccc13)C2c1ccc(O)cc1 (centres undefined)
Prompt line: When the recorded MIC values are compared, which is smaller: that of I or that of II ? Which one? Tell me its label.
Response line: II
(II: 62.5 µg/mL, I: 125 µg/mL)

[A] O=C1CCCC2=C1C(c1ccc(Cl)cc1)c1ccc3ccccc3c1N2 (centres undefined)
[B] CC1(C)CC(=O)C2=C(C1)Nc1c(ccc3ccccc13)C2c1ccc(Cl)cc1 (centres undefined)
Prompt line: Lower value of MIC belongs to which: A or B ? State the label of the item chosen.
Response line: B
(B: 62.5 µg/mL, A: 125 µg/mL)
